target: T1, Recombinant Human DLL4 (human, UniProt Q9NR61 27-524); test: ECL (MSD) multispot binding assay, DLL4 spotted on plate, purified Fab in solution; signal over blank
T1 construct: Bought recombinant human DLL4 (R&D Systems Cat#1506-D4/CF); That entry includes the signal peptide (amino acids 1-25), the transmembrane region and the cytoplasmic domain; also called delta-like protein 4; Delta-like ligand 4
# ECL Signal/Blank listing for each entry below
Form field (numeric): enter value without unit.

Some binders with recorded ECL Signal/Blank:
1. Fab VH5-51_IGHD5-18*01>3_IGHJ4*01 G100K/G104T G35A & V3-4_IGLJ1*01 (Fab, V domains shown, Fab expressed in E. coli with CH1 (plasmid A, His6 and Flag tags) and lambda CL (plasmid E); also called KT G35A) VH: EVQLVQSGAEVKKPGESLKISCKGSGYSFTSYWIAWVRQMPGKGLEWMGIIYPGDSDTRYSPSFQGQVTISADKSISTAYLQWSSLKASDTAMYYCARRKYSYTYDYFDYWGQGTLVTVSS VL: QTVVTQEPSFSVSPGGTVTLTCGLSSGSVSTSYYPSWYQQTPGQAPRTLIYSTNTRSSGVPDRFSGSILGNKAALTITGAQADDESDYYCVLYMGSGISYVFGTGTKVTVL
180
2. Fab VH5-51_IGHD5-18*01>3_IGHJ4*01 G100K/G104T S28A & V3-4_IGLJ1*01 (Fab, V domains shown, Fab expressed in E. coli with CH1 (plasmid A, His6 and Flag tags) and lambda CL (plasmid E); also called KT S28A) VH: EVQLVQSGAEVKKPGESLKISCKGSGYAFTSYWIGWVRQMPGKGLEWMGIIYPGDSDTRYSPSFQGQVTISADKSISTAYLQWSSLKASDTAMYYCARRKYSYTYDYFDYWGQGTLVTVSS VL: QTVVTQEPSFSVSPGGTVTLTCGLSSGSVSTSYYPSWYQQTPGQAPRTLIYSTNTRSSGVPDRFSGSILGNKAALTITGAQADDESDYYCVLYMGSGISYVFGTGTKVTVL
112

get_value(item= Fab VH5-51_IGHD5-18*01>3_IGHJ4*01 G100K/G104T G24A & V3-4_IGLJ1*01 (Fab, V domains shown, Fab expressed in E. coli with CH1 (plasmid A, His6 and Flag tags) and lambda CL (plasmid E); also called KT G24A) VH: EVQLVQSGAEVKKPGESLKISCKASGYSFTSYWIGWVRQMPGKGLEWMGIIYPGDSDTRYSPSFQGQVTISADKSISTAYLQWSSLKASDTAMYYCARRKYSYTYDYFDYWGQGTLVTVSS VL: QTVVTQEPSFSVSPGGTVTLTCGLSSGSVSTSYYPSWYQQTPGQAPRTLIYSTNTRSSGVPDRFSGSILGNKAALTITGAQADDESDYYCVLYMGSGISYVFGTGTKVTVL , readout=ECL Signal/Blank) returns 122
